Target: Thromboxane A2 receptor (Homo sapiens) (UniProt P21731)
Sequence (whole entry): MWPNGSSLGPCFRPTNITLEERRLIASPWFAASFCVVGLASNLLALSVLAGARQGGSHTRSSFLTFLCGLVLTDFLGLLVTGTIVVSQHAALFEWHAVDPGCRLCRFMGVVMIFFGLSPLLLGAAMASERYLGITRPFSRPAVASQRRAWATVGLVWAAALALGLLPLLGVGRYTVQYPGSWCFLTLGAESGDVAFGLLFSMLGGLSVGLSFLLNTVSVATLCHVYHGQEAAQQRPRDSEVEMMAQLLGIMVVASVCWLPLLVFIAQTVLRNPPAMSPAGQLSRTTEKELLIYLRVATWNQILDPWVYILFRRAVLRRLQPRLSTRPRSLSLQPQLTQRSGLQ
Experiment: Ratio of IC50 for thromboxane A2 receptor isoform alpha to IC50 for thromboxane A2 receptor isoform beta
Type: functional
Would you please tag the item yes (1) when its Ratio IC50 is 7 or above, and no (0) when it is below?

| SMILES_REPRESENTATION | TESTED_TARGET | CLASSIFICATION |
| --- | --- | --- |
| Cc1ccc(Oc2ccc([N+](=O)[O-])cc2S(=O)(=O)N/C(=N\C#N)NC(C)(C)C)cc1 | Thromboxane A2 receptor (Homo sapiens) (UniProt P21731) | no (0) |
| Cc1cc(Oc2ccc([N+](=O)[O-])cc2S(=O)(=O)NC(=O)NC(C)(C)C)ccc1Cl | Thromboxane A2 receptor (Homo sapiens) (UniProt P21731) | yes (1) |
| CCCCCNC(=O)NS(=O)(=O)c1cc([N+](=O)[O-])ccc1Oc1ccc(Cl)cc1 | Thromboxane A2 receptor (Homo sapiens) (UniProt P21731) | yes (1) |
| CCCNC(=O)NS(=O)(=O)c1cc([N+](=O)[O-])ccc1Oc1ccc(C)cc1 | Thromboxane A2 receptor (Homo sapiens) (UniProt P21731) | yes (1) |
| CCCCCNC(=O)NS(=O)(=O)c1cc([N+](=O)[O-])ccc1Oc1cccc(Br)c1 | Thromboxane A2 receptor (Homo sapiens) (UniProt P21731) | yes (1) |
| CC(C)(C)NC(=O)NS(=O)(=O)c1cc([N+](=O)[O-])ccc1Oc1ccccc1Br | Thromboxane A2 receptor (Homo sapiens) (UniProt P21731) | yes (1) |

Does CC(C)(C)NC(=O)NS(=O)(=O)c1cc([N+](=O)[O-])ccc1Oc1ccccc1Cl have a reported Ratio IC50 of at least 7?
yes (1)

Record: CCCCCNC(=O)NS(=O)(=O)c1cc([N+](=O)[O-])ccc1Oc1ccccc1Br
yes (1)

Record: CCCCCNC(=O)NS(=O)(=O)c1cc([N+](=O)[O-])ccc1Oc1ccc(Cl)c(C)c1
no (0)

Record: Cc1ccccc1Oc1ccc([N+](=O)[O-])cc1S(=O)(=O)NC(=O)NC(C)(C)C
yes (1)

Record: CCCCCNC(=O)NS(=O)(=O)c1cc([N+](=O)[O-])ccc1Oc1ccc(OCCC)cc1
no (0)

====

Target: Thromboxane A2 receptor (Homo sapiens)
Sequence (P21731 whole entry): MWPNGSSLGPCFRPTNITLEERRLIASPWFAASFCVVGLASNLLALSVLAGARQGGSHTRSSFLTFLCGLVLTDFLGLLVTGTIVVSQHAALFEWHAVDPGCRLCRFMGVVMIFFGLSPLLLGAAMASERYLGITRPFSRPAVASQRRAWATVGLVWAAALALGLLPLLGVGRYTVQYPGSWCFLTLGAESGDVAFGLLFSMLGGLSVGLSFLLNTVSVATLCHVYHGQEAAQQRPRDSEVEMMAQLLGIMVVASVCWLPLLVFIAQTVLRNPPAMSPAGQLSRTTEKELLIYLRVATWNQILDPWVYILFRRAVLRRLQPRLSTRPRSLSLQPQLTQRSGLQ
Assay: Antagonist activity at human thromboxane A2 receptor isoform alpha expressed in HEK293 cells assessed as inhibition of U46619-induced calcium mobilization
Assay type: functional, cell-based
For each record, check the reported IC50: if it is below 2 µM write class 1, else write class 0.

Consider the worked cases shown below.
| SMILES_REPRESENTATION | CLASSIFICATION |
| --- | --- |
| CC(C)(C)NC(=O)NS(=O)(=O)c1cc([N+](=O)[O-])ccc1Oc1cccc(I)c1 | class 1 |
| CCCCCNC(=O)NS(=O)(=O)c1cc([N+](=O)[O-])ccc1Oc1ccccc1Br | class 0 |
| CCCCNC(=O)NS(=O)(=O)c1cc([N+](=O)[O-])ccc1Oc1cccc(C)c1 | class 1 |
| CCCCCNC(=O)NS(=O)(=O)c1cc([N+](=O)[O-])ccc1Oc1cccc(Br)c1 | class 0 |

Please turn your attention to the following entry.
Lab note: IC50 threshold 2 µM. Does this compound come in strictly under it? CC(C)(C)NC(=O)NS(=O)(=O)c1cc([N+](=O)[O-])ccc1Oc1ccccc1Cl
class 0

====

Assign Ratio IC50 to each entry below.
Molecular target: UniProt:P21731
Sequence (whole entry): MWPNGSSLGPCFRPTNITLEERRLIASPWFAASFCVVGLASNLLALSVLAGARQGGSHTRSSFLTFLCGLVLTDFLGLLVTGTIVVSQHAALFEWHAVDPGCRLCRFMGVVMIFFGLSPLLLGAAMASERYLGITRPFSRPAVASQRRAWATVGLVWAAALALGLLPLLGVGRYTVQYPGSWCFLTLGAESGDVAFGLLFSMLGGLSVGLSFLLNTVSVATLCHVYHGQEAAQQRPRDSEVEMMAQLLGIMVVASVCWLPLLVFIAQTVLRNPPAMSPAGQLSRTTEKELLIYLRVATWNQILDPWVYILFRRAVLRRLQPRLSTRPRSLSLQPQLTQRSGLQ
Experiment: Ratio of IC50 for thromboxane A2 receptor isoform alpha to IC50 for thromboxane A2 receptor isoform beta
Type: functional

For orientation, consider the following solved cases.
| SMILES_REPRESENTATION | TESTED_TARGET | TEST_READOUT | ENDPOINT_VALUE |
| --- | --- | --- | --- |
| CC(C)(C)NC(=O)NS(=O)(=O)c1cc([N+](=O)[O-])ccc1Oc1cccc(Br)c1 | UniProt:P21731 | Ratio IC50 | 11.6 |
| CC(C)(C)NC(=O)NS(=O)(=O)c1cc([N+](=O)[O-])ccc1Oc1cccc(Cl)c1 | UniProt:P21731 | Ratio IC50 | 9.6 |
| CCCCCNC(=O)NS(=O)(=O)c1cc([N+](=O)[O-])ccc1Oc1cccc(I)c1 | UniProt:P21731 | Ratio IC50 | 5.1 |
| COc1ccc(Oc2ccc([N+](=O)[O-])cc2S(=O)(=O)NC(=O)NC(C)(C)C)cc1 | UniProt:P21731 | Ratio IC50 | 12.7 |
| Cc1ccc(Oc2ccc([N+](=O)[O-])cc2S(=O)(=O)NC(=O)NC(C)C)cc1 | UniProt:P21731 | Ratio IC50 | 10.4 |

Please report Ratio IC50 for every entry that follows.
1. CCCCCNC(=O)NS(=O)(=O)c1cc([N+](=O)[O-])ccc1Oc1ccc(OC)cc1
2. CCCCCNC(=O)NS(=O)(=O)c1cc([N+](=O)[O-])ccc1Oc1cccc(Cl)c1
3. COc1cc(C)ccc1Oc1ccc([N+](=O)[O-])cc1S(=O)(=O)NC(=O)NC(C)(C)C
4. CC(C)(C)NC(=O)NS(=O)(=O)c1cc([N+](=O)[O-])ccc1Oc1ccc(Br)cc1

6
11.9
10.2
3.2

====

Assign log10 IC50 to each entry below.
Molecular target: Thromboxane A2 receptor (Homo sapiens, UniProt P21731)
Sequence (P21731 whole entry): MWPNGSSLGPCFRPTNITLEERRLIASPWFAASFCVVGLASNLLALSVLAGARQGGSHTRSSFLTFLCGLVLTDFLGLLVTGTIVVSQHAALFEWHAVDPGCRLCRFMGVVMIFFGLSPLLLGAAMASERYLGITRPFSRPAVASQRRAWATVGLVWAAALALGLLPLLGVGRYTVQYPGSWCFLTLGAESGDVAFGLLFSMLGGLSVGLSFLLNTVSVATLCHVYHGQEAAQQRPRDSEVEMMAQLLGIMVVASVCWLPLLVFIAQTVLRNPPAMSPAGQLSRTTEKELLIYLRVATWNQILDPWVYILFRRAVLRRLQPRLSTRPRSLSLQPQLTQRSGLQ
Assay: Antagonist activity at human thromboxane A2 receptor isoform beta expressed in HEK293 cells assessed as inhibition of U46619-induced calcium mobilization
Assay type: functional, cell-based
Record value = log10 of IC50 given in nM.

Please report log10 IC50 for every entry that follows.
1. CC(C)(C)NC(=O)NS(=O)(=O)c1cc([N+](=O)[O-])ccc1Oc1ccccc1Br
2. CCCCCNC(=O)NS(=O)(=O)c1cc([N+](=O)[O-])ccc1Oc1ccccc1Cl
3. CCCCCNC(=O)NS(=O)(=O)c1cc([N+](=O)[O-])ccc1Oc1ccc(OC)cc1
4. Cc1ccccc1Oc1ccc([N+](=O)[O-])cc1S(=O)(=O)NC(=O)NC(C)C
5. CC(C)(C)NC(=O)NS(=O)(=O)c1cc([N+](=O)[O-])ccc1Oc1ccc(Br)cc1
6. COc1ccc(Oc2ccc([N+](=O)[O-])cc2S(=O)(=O)NC(=O)NC(C)(C)C)cc1
7. Cc1ccc(Oc2ccc([N+](=O)[O-])cc2S(=O)(=O)NC(=NC(C)(C)C)NC#N)cc1

[2.18, 2.59, 2.65, 2.70, 2.72, 2.18, 2.76]

Please report log10 IC50 for every entry that follows.
1. CCCOc1ccc(Oc2ccc([N+](=O)[O-])cc2S(=O)(=O)NC(=O)NC(C)(C)C)cc1
2. CCCCCNC(=O)NS(=O)(=O)c1cc([N+](=O)[O-])ccc1Oc1ccc(Br)cc1
3. CCCCCNC(=O)NS(=O)(=O)c1cc([N+](=O)[O-])ccc1Oc1cccc(C)c1
4. CCCCCNC(=O)NS(=O)(=O)c1cc([N+](=O)[O-])ccc1Oc1ccc(Cl)c(C)c1
5. CCCCNC(=O)NS(=O)(=O)c1cc([N+](=O)[O-])ccc1Oc1cccc(C)c1

2.94
2.08
2.35
2.75
2.19

Please report log10 IC50 for every entry that follows.
1. CCCNC(=O)NS(=O)(=O)c1cc([N+](=O)[O-])ccc1Oc1ccc(C)cc1
2. Cc1ccccc1Oc1ccc([N+](=O)[O-])cc1S(=O)(=O)NC(=O)NC(C)(C)C

1. 2.65
2. 2.37
